test system: primary human hepatic stellate cells (donor 1); experiment: scaled lipid accumulation score (0 = DMSO-like, 1 = nortriptyline-like); higher = stronger HSC inactivation (lipid re-accumulation), active = hit call of the paper; details: library stock concentration: 10 mM; 48 h
Where a name gives a salt, the structure may show the parent alone. Out of some 5,800 compounds screened, about 620 (11%) showed activity.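 How the source made its calls: active = score above a cut-off or among the top three wells of a plate; in these data no inactive exceeds 0.85.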 The full list was thinned out, with actives kept by preference.
Mark one answer only. Choices: active, inactive

COMPOUND	CLASS_LABEL
Cc1cccc(C2CN(C)CCc3c2cc(O)c(O)c3Cl)c1 (centres undefined)	inactive
Nc1ncnc2c1c(-c1cccc(OCc3ccccc3)c1)cn2[C@H]1C[C@@H](CN2CCC2)C1	active
CO/N=C(\C(=O)N[C@@H]1C(=O)N2C(C(=O)O)=C(CSC(=O)c3ccco3)CS[C@H]12)c1csc(N)n1	inactive
N#C[C@@H]1C[C@@H]2C[C@@H]2N1C(=O)[C@@H](N)C12CC3CC(CC(O)(C3)C1)C2 [Saxagliptin]	inactive
O=C(Nc1cc2cc[nH]c2cn1)c1ccccc1	inactive

// param item: CC(C)(Cc1ccc2ccccc2c1)NC[C@@H](O)COc1cccc(Cl)c1C#N ; yields the recorded call
inactive

// param item: O=C1/C(=C/c2cccs2)CCC/C1=C\c1cccs1 ; yields the recorded call
inactive

// param item: CO/N=C(\C(=O)N[C@@H]1C(=O)N2C(C(=O)O)=C(CSC(=O)c3ccco3)CS[C@H]12)c1csc(N)n1 [Ceftiofur HCl] ; yields the recorded call
inactive

// param item: OCc1ccccc1 ; yields the recorded call
inactive

// param item: COC1=CC(=O)C=C(OC)C1=O [2,6-dimethoxyquinone] ; yields the recorded call
inactive

// param item: CCCCNC(=O)[C@@H]1Cc2ccccc2N1C(=O)[C@@H](N)CC [Butabindide oxalate] ; yields the recorded call
inactive

// param item: CN1CCCC(n2nc(Cc3ccc(Cl)cc3)c3ccccc3c2=O)CC1 (centres undefined) ; yields the recorded call
active

// param item: CCCSc1nc(N[C@@H]2C[C@H]2c2ccc(F)c(F)c2)c2nnn([C@@H]3C[C@H](OCCO)[C@@H](O)[C@H]3O)c2n1 [Ticagrelor] ; yields the recorded call
inactive

// param item: O=C(c1cc(Cc2n[nH]c(=O)c3ccccc23)ccc1F)N1CCN(C(=O)C2CC2)CC1 [Olaparib] ; yields the recorded call
inactive

// param item: N[C@@H]1CCN(O)C1=O ; yields the recorded call
inactive

// param item: CSc1ccc(C(=O)c2[nH]c(=O)[nH]c2C)cc1 [Enoximone] ; yields the recorded call
inactive

// param item: CNC(=O)c1ccc(Nc2cc(Nc3ccccc3S(=O)(=O)C(C)C)c3cc[nH]c3n2)nc1 ; yields the recorded call
inactive

// param item: C[C@]12C=CC(=O)N[C@@H]1CC[C@@H]1[C@@H]2CC[C@]2(C)[C@@H](C(=O)Nc3cc(C(F)(F)F)ccc3C(F)(F)F)CC[C@@H]12 [Dutasteride] ; yields the recorded call
inactive

// param item: Cc1cc(C)cc(OCC2CNC(=O)O2)c1 (centres undefined) [Metaxalone] ; yields the recorded call
inactive
